Tested on: A549 NSCLC
Assay: NCI tumour cell line growth inhibition, 48 h
For each record, write down the corresponding TGI.

What TGI value was documented for this compound, CC1/C(=N\O)CC(c2ccccc2)N(C)C1c1ccccc1 (stereo unspecified) ? > 100 µM

What TGI value was documented for this compound, O=C1CC(c2cccc(F)c2)Nc2cc3c(cc21)OCO3 (stereo unspecified) ? > 100 µM

What TGI value was documented for this compound, Cn1cc(-c2ccc3cc(-c4ccc(CC(=O)Nc5cc(C(C)(C)C)on5)cc4)cnc3c2)cn1 ? > 100 µM

What TGI value was documented for this compound, O=C(/C=C/c1ccccc1F)c1ccc(Cl)c(Cl)c1 ? > 100 µM

What TGI value was documented for this compound, COCN1COCN=C1NC#N ? > 100 µM

What TGI value was documented for this compound, CCOC(=O)C(Cc1c[nH]c2cc([N+](=O)[O-])ccc12)NS(=O)(=O)c1ccc2ccccc2c1 (stereo unspecified) ? > 100 µM

What TGI value was documented for this compound, O=C1/C=C(/c2ccc(O)cc2)[C@@H](O)Cc2ccc(O)cc2O1 ? > 100 µM

What TGI value was documented for this compound, Cc1ccc(C(=O)Nc2ccc(CP(=O)(O)O)cc2CP(=O)(O)O)cc1NC(=O)Nc1cc(C(=O)Nc2ccc(CP(=O)(O)O)cc2CP(=O)(O)O)ccc1C ? > 100 µM

What TGI value was documented for this compound, CC1CC[P+](c2ccccc2)(c2ccccc2)c2c1ccc1ccccc21 (stereo unspecified) ? > 100 µM

What TGI value was documented for this compound, C[C@]12CC[C@H]3[C@@H](CC=C4C[C@@H](N5CCCC5)CC[C@@]43C)[C@@H]1C/C(=C\c1cccc(OCCN3CCOCC3)c1)[C@@H]2O ? 45.4 µM

What TGI value was documented for this compound, COc1ccc2c(c1)[nH]c(=O)c1c3cccc(F)c3cn21 ? > 100 µM

What TGI value was documented for this compound, O=C(CSc1nc(-c2ccccc2)c(-c2ccccc2)[nH]1)N/N=C/c1ccc(O)cc1 ? 69.5 µM

What TGI value was documented for this compound, O=C1C(c2ccc(Br)cc2)=[N+]([O-])c2ccccc21 ? 41.2 µM

What TGI value was documented for this compound, CC(=O)Oc1c(N2CCCCC2)c(C(=O)c2ccccc2)c(O)c2ccn(N(C)C)c12 ? > 100 µM

What TGI value was documented for this compound, COC1=CC2(CC(OC)=C1OC)OC21COc2ccccc2C1=O (stereo unspecified) ? > 100 µM

What TGI value was documented for this compound, O=C1N2Cc3c4ccc5c3CN3C(=O)N6Cc7c(ccc(c7CN1C6(c1ccccc1)C23c1ccccc1)OCCOCCNCCOCCO4)OCCOCCNCCOCCO5 (stereo unspecified) ? > 100 µM

What TGI value was documented for this compound, CC1(C)CCC(C)(C)C1C(=O)NC(O)C(=O)O (stereo unspecified) ? > 100 µM

What TGI value was documented for this compound, Cn1c(CO)ccc1-c1ccc(-c2ccc[se]2)[se]1 ? > 100 µM

What TGI value was documented for this compound, COc1ncc(Nc2ncc([C@@H](C)N3CCN(S(C)(=O)=O)CC3)cc2-c2nc(C)nc(N)n2)cc1F ? > 40.7 µM

What TGI value was documented for this compound, O=C(N=c1ccc2nc(=O)[nH]n(O)c-2c1)C(F)(F)F ? > 100 µM

What TGI value was documented for this compound, Cc1csc2[n+]1-c1ccccc1N(C(=O)Nc1ccccc1)C(C)C2 (stereo unspecified) ? > 100 µM

====

Test system: HCT-15 colon
Test: NCI tumour cell line growth inhibition, 48 h
observable: GI50

What GI50 value was documented for this compound, COc1cc(OC)cc(-c2n/c(=C\c3c(O)[nH]c4ccc(OC)cc34)cc3c2=Nc2ccccc2-3)c1 ? 3.85 µM

What GI50 value was documented for this compound, CC(C)(C)c1ccc(Oc2ccc(N)cn2)cc1 ? 43.9 µM

What GI50 value was documented for this compound, Cn1cc(-c2ccc3cc(-c4ccc(CC(=O)Nc5cc(C(C)(C)C)on5)cc4)cnc3c2)cn1 ? 0.466 µM

What GI50 value was documented for this compound, COc1cc(/C=N/Nc2ncnc3c2cnn3-c2ccccc2)ccc1O ? 4.06 µM

What GI50 value was documented for this compound, Cc1ccc(/C=N/Nc2nc(Nc3ccccc3)nc(-n3nc(C)cc3C)n2)cc1 ? 2.63 µM

What GI50 value was documented for this compound, CCOC(=O)c1cc2c(cc1Cl)SC(=Nc1ccccc1)N(S(=O)(=O)c1ccc(Cl)cc1)S2(=O)=O ? 6.52 µM

What GI50 value was documented for this compound, Cc1cccc2nc3ccccc3c(Nc3ccc(NS(C)(=O)=O)cc3)c12 ? 5.89 µM

What GI50 value was documented for this compound, CCN(CC)CCCNc1cc(OC)cc2nc3cc(Cl)ccc3nc12 ? 4.12 µM

What GI50 value was documented for this compound, CC1=C2[C@@H](CC1)[C@]1(C)O[C@@](C(C)C)(C[C@H]1OC(=O)CO)[C@H]2OC(=O)C1CC1c1ccccc1 (stereo partly specified) ? 13 µM

What GI50 value was documented for this compound, CCC(C)Nc1ccc(N)cc1 (stereo unspecified) ? 3.84 µM

What GI50 value was documented for this compound, COc1ccc(CN2c3ccccc3Sc3ccccc32)c(C(F)(F)F)c1 ? 0.489 µM

====

For each record, write down the corresponding TGI.
System: SNB-75 CNS
Experiment: NCI tumour cell line growth inhibition, 48 h
Quick reminder: number only, in µM, skip the unit.

What TGI value was documented for this molecule, CCN(CC)CCN1C(=O)c2c(c3c4ccccc4[nH]c3c3ccc4ccccc4c23)C1=O ? 2.4

What TGI value was documented for this molecule, COc1ccc2c(c1)[nH]c(=O)c1c3cccc(F)c3cn21 ? 5.44

What TGI value was documented for this molecule, CC1CC[P+](c2ccccc2)(c2ccccc2)c2c1ccc1ccccc21 (stereo not given) ? 6.05

What TGI value was documented for this molecule, COc1cc(OC)cc(-c2n/c(=C\c3c(O)[nH]c4ccc(OC)cc34)cc3c2=Nc2ccccc2-3)c1 ? 34.3

What TGI value was documented for this molecule, O=C(CCCN1CCC(O)(c2ccc(Cl)cc2)CC1)c1ccc(F)cc1 ? 68.9

What TGI value was documented for this molecule, NCC(O)CNC(=O)c1ccc(-c2ccc(-c3ccc(C(=O)NCC(O)CN)cc3)o2)cc1 (stereo not given) ? 49.5

====

Test system: ACHN renal
Experiment: NCI tumour cell line growth inhibition, 48 h
observable: TGI

What TGI value was documented for this compound, C=CCN(CCNS(=O)(=O)c1ccc(C)cc1)S(=O)(=O)c1ccc(C)cc1 ? > 100 µM

What TGI value was documented for this compound, Cc1cccc(N2C(=O)C3c4[nH]c5ccccc5c4C4CCC(C(C)(C)C)CC4C3C2=O)c1 (stereo unspecified) ? 17.7 µM

What TGI value was documented for this compound, Cc1oc2c(c1C)S(=O)(=O)C(C#N)=C(N(C)C)N2 ? > 100 µM

What TGI value was documented for this compound, CC(C)=CCc1[nH]c2ccccc2c1C1=C(O)C(=O)C(c2c(CC=C(C)C)[nH]c3ccccc23)=C(O)C1=O ? 3.95 µM

What TGI value was documented for this compound, COc1cc(OC)c2c3c(OC)cc(OC)c4c(=O)c(O)c(C[C@@H](C)O)c(c5c(C[C@@H](C)O)c(O)c(=O)c1c25)c43 ? > 100 µM

What TGI value was documented for this compound, COc1ccccc1NC(=O)CC(=O)N1N=C(N2c3ccccc3Sc3ccccc32)CC1c1ccccc1 (stereo unspecified) ? > 100 µM

What TGI value was documented for this compound, CC1C(C)N(C(=O)CCl)c2ccccc2N1C(=O)CCl (stereo unspecified) ? 0.783 µM

What TGI value was documented for this compound, CC1=C2[C@@H](CC1)[C@]1(C)O[C@@](C(C)C)(C[C@H]1OC(=O)CO)[C@H]2OC(=O)C1CC1c1ccccc1 (stereo partly specified) ? 20.9 µM

What TGI value was documented for this compound, Cc1cc2c(cc1Cl)S/C(=C/C(=O)O)C(Nc1ccc3ncsc3c1)=NS2(=O)=O ? > 68 µM

What TGI value was documented for this compound, COC1=CC2(CC(OC)=C1OC)OC21COc2ccccc2C1=O (stereo unspecified) ? > 100 µM

What TGI value was documented for this compound, CC(O)(P(=O)(O)O)P(=O)(O)OCC(O)CN1CCOCC1 (stereo unspecified) ? > 100 µM

What TGI value was documented for this compound, CCCCCCCCCCCCCC[N+](C)(C)CCCCCCCCCCCCCC ? 6.85 µM

What TGI value was documented for this compound, CC1(C)CCC(C)(C)C1C(=O)NC(O)C(=O)O (stereo unspecified) ? > 100 µM

What TGI value was documented for this compound, Cc1ccccc1NC(=O)c1sc2nc(C)c(C(=O)/C=C/c3ccccc3)cc2c1N ? 1.86 µM

What TGI value was documented for this compound, COc1cc(Nc2ncc(-c3ccccc3)o2)cc(OC)c1 ? > 25 µM

What TGI value was documented for this compound, O=C(CC1OC(O)C(Cl)=C1Cl)c1cccnc1 (stereo unspecified) ? > 31.6 µM

What TGI value was documented for this compound, Cc1cc2c(C)n(Cc3ccccc3Cl)nc2c(C(=O)O)c1C ? > 100 µM

What TGI value was documented for this compound, O=[N+]([O-])C(/C=N/Nc1ccccc1)/C=N/Nc1ccccc1 ? > 100 µM

What TGI value was documented for this compound, CC(=O)Nc1c(Nc2ccccc2)[nH]c(C)nc1=S ? > 100 µM

What TGI value was documented for this compound, CC(=O)Nc1c(S(=O)(=O)c2ccccc2)c(C)c(C)n1Cc1ccccc1 ? > 100 µM

What TGI value was documented for this compound, COc1ccc(C/C(=C(\C)c2ccc(OCCN3CCCC3)cc2)c2ccc(OCCN3CCCC3)cc2)cc1 ? 3.12 µM
